# Tested on: Candida albicans A-26
# method-summary: Therapeutic activity against Candida albicans A-26 infection in mice
# Assay type: in vivo
# condition-details: A26, sc, read-out: Lowest Active Dose, subcutaneous at 0, 4 and 24 hours post infection, lowest dose with significant anti-fungal effect
Numbered stars: 1 amine (or outer) side, 2 acyl side, 3 side chain; on linkers, the order of the positions; unused ones are H or OH. Bridge positions count the residues as written; N and C are the ends. Square brackets hold non-standard residues; d marks the D form. Peptide text beside a SMILES is read from it. * marks the point of attachment. Orn(4R-OH,5R-OH) = O=C([C@H](C[C@@H](O)[C@@H](O)N[*:3])N[*:1])[*:2]; hTyr(3S-OH,4S-OH) = N[C@H](C(=O)O)[C@H](O)[C@@H](O)c1ccc(O)cc1; Pro(3S-OH,4S-Me) = C[C@H]1CN[C@H](C(=O)O)[C@H]1O; Hyp = O=C(O)[C@@H]1C[C@@H](O)CN1; Lauroyl = CCCCCCCCCCCC(=O)*; 4Abz = Nc1ccc(C(=O)O)cc1; Heptanoyl = CCCCCCC(=O)*
Could you please report measured minimal effective dose for the items listed next?

Challenge: Would you kindly share the measured minimal effective dose for CCCCCCC(=O)Nc1ccc(C(=O)N[C@H]2C[C@@H](O)[C@@H](O)NC(=O)[C@@H]3[C@@H](O)[C@@H](C)CN3C(=O)[C@H]([C@@H](C)O)NC(=O)[C@H]([C@H](O)[C@@H](O)c3ccc(O)cc3)NC(=O)[C@@H]3C[C@@H](O)CN3C(=O)[C@H]([C@@H](C)O)NC2=O)cc1 [Example 78] ({Heptanoyl-4Abz}-[Orn(4R-OH,5R-OH)]T[Hyp][hTyr(3S-OH,4S-OH)]T[Pro(3S-OH,4S-Me)]; lactam 1-C) ?
Response given: > 40 mg/kg

Challenge: Would you kindly share the measured minimal effective dose for CC(=O)Nc1ccc(C(=O)N[C@H]2C[C@@H](O)[C@@H](O)NC(=O)[C@@H]3[C@@H](O)[C@@H](C)CN3C(=O)[C@H]([C@@H](C)O)NC(=O)[C@H]([C@H](O)[C@@H](O)c3ccc(O)cc3)NC(=O)[C@@H]3C[C@@H](O)CN3C(=O)[C@H]([C@@H](C)O)NC2=O)cc1 [Example 77] (Ac-[4Abz][Orn(4R-OH,5R-OH)]T[Hyp][hTyr(3S-OH,4S-OH)]T[Pro(3S-OH,4S-Me)]; lactam 2-C) ?
Response given: > 40 mg/kg

Challenge: Would you kindly share the measured minimal effective dose for CCCCCCCCCCCC(=O)Nc1ccc(C(=O)NCC(=O)N[C@H]2C[C@@H](O)[C@@H](O)NC(=O)[C@@H]3[C@@H](O)[C@@H](C)CN3C(=O)[C@H]([C@@H](C)O)NC(=O)[C@H]([C@H](O)[C@@H](O)c3ccc(O)cc3)NC(=O)[C@@H]3C[C@@H](O)CN3C(=O)[C@H]([C@@H](C)O)NC2=O)cc1 [Example 74] ({Lauroyl-4Abz}-G[Orn(4R-OH,5R-OH)]T[Hyp][hTyr(3S-OH,4S-OH)]T[Pro(3S-OH,4S-Me)]; lactam 2-C) ?
Response given: > 40 mg/kg

###

Could you please report measured MIC for the items listed next?
# System: Trychophyton mentagrophytes #6
# method-summary: Agar plate disc diffusion test, MIC per disc
# Format: cell-based
# condition-details: 0.01M sodium borate, pH 7.5, 24 hours at 30° C.
Numbered stars: 1 amine (or outer) side, 2 acyl side, 3 side chain; on linkers, the order of the positions; unused ones are H or OH. Bridge positions count the residues as written; N and C are the ends. Square brackets hold non-standard residues; d marks the D form. Peptide text beside a SMILES is read from it. * marks the point of attachment. Orn(4R-OH,5R-OH) = O=C([C@H](C[C@@H](O)[C@@H](O)N[*:3])N[*:1])[*:2]; hTyr(3S-OH,4S-OH) = N[C@H](C(=O)O)[C@H](O)[C@@H](O)c1ccc(O)cc1; Pro(3S-OH,4S-Me) = C[C@H]1CN[C@H](C(=O)O)[C@H]1O; Palmitoyl = CCCCCCCCCCCCCCCC(=O)*; Hyp = O=C(O)[C@@H]1C[C@@H](O)CN1; X7 = Cc1ccc(C(=O)[*:2])cc1N[*:1]; Myristoyl = CCCCCCCCCCCCCC(=O)*; Lauroyl = CCCCCCCCCCCC(=O)*; 3Abz = Nc1cccc(C(=O)O)c1; 4Abz = Nc1ccc(C(=O)O)cc1

Challenge: Which MIC is reported with Trychophyton mentagrophytes #6 for this entry: CCCCCCCCCCCC(=O)Nc1cc(C(=O)N[C@H]2C[C@@H](O)[C@@H](O)NC(=O)[C@@H]3[C@@H](O)[C@@H](C)CN3C(=O)[C@H]([C@@H](C)O)NC(=O)[C@H]([C@H](O)[C@@H](O)c3ccc(O)cc3)NC(=O)[C@@H]3C[C@@H](O)CN3C(=O)[C@H]([C@@H](C)O)NC2=O)ccc1C [Example 69] (Lauroyl-[X7][Orn(4R-OH,5R-OH)]T[Hyp][hTyr(3S-OH,4S-OH)]T[Pro(3S-OH,4S-Me)]; lactam 2-C) ?
Response given: < 0.039 μg/disc

Challenge: Which MIC is reported with Trychophyton mentagrophytes #6 for this entry: CCCCCCCCCCCCCC(=O)Nc1ccc(C(=O)N[C@H]2C[C@@H](O)[C@@H](O)NC(=O)[C@@H]3[C@@H](O)[C@@H](C)CN3C(=O)[C@H]([C@@H](C)O)NC(=O)[C@H]([C@H](O)[C@@H](O)c3ccc(O)cc3)NC(=O)[C@@H]3C[C@@H](O)CN3C(=O)[C@H]([C@@H](C)O)NC2=O)cc1 [Example 80] ({Myristoyl-4Abz}-[Orn(4R-OH,5R-OH)]T[Hyp][hTyr(3S-OH,4S-OH)]T[Pro(3S-OH,4S-Me)]; lactam 1-C) ?
Response given: < 0.039 μg/disc

Challenge: Which MIC is reported with Trychophyton mentagrophytes #6 for this entry: CCCCCCCCCCCCCCCC(=O)Nc1ccc(C(=O)N[C@H]2C[C@@H](O)[C@@H](O)NC(=O)[C@@H]3[C@@H](O)[C@@H](C)CN3C(=O)[C@H]([C@@H](C)O)NC(=O)[C@H]([C@H](O)[C@@H](O)c3ccc(O)cc3)NC(=O)[C@@H]3C[C@@H](O)CN3C(=O)[C@H]([C@@H](C)O)NC2=O)cc1 [Example 81] ({Palmitoyl-4Abz}-[Orn(4R-OH,5R-OH)]T[Hyp][hTyr(3S-OH,4S-OH)]T[Pro(3S-OH,4S-Me)]; lactam 1-C) ?
Response given: < 0.039 μg/disc

Challenge: Which MIC is reported with Trychophyton mentagrophytes #6 for this entry: CCCCCCCCCCCC(=O)Nc1cccc(C(=O)N[C@H]2C[C@@H](O)[C@@H](O)NC(=O)[C@@H]3[C@@H](O)[C@@H](C)CN3C(=O)[C@H]([C@@H](C)O)NC(=O)[C@H]([C@H](O)[C@@H](O)c3ccc(O)cc3)NC(=O)[C@@H]3C[C@@H](O)CN3C(=O)[C@H]([C@@H](C)O)NC2=O)c1 [Example 65] ({Lauroyl-3Abz}-[Orn(4R-OH,5R-OH)]T[Hyp][hTyr(3S-OH,4S-OH)]T[Pro(3S-OH,4S-Me)]; lactam 1-C) ?
Response given: < 0.039 μg/disc
